System: Streptococcus pneumoniae 1175
Type: cell-based
PARTICULARS: Streptococcus pneumoniae 1175; microtiter broth dilution
Field: MIC S. pneumo. 1175. Provide a value for each of the compounds that follow.
// return numeric value only (unit: µg/mL, not printed)

Memo: CCC1OC(=O)C(C)C(=O)C(C)C(OC2OC(C)CC(N(C)C)C2O)C(C)(OC)CC(C)C(=O)C(C)C2N(C3CN(Cc4cc(OC)nc5ccccc45)C3)C(=O)OC12C (stereo not drawn) , reported MIC S. pneumo. 1175: 0.25

Memo: CCC1OC(=O)C(C)C(=O)C(C)C(OC2OC(C)CC(N(C)C)C2O)C(C)(OC)CC(C)C(=O)C(C)C2N(C3CN(Cc4ccc(F)c(F)c4)C3)C(=O)OC12C (stereo not drawn) , reported MIC S. pneumo. 1175: 0.25

All figures here come from patent US7462600B2.
